DETAILS: octanol/water
ASSAY METRIC: logP

Would you please look over these solved cases?
>>> reading("COc1ccc(-c2[nH]nc(O)c2N)cc1")
0.85
>>> reading("Nc1ccccc1O [QUESTIOMYCIN B]")
0.65

(P) Oc1coc2cc[nH]c12
(Q) Oc1coc2[nH]cnc12
Input pair: P , Q . Output: entry with lower logP. // respond with label for picked entry
Q
(Q: 0.33, P: 1.07)

* * *

TARGET: Glycine receptor (Rattus norvegicus)
ASSAY PROTOCOL: Inhibition of binding of [3H]strychnine to glycine receptor
ASSAY METRIC: IC50 (µM)
Supply the numeric figure in µM, leaving out any unit text.

Quote Glycine receptor (Rattus norvegicus) IC50 for entry Nc1c(C(F)(F)F)n[nH]c1O .
418

* * *

ASSAY PROTOCOL: Inhibition of binding of [3H]strychnine to glycine receptor in rat
pIC50: −log10 of the molar value.
ASSAY METRIC: pIC50

(a) NCC(=O)O
(b) CNCC(=O)O
Input pair: a , b . Output: entry with lower pIC50. // respond with label for picked entry
b
